assay.target: MBL Monoclonal anti-phosphotyrosine antibody (clone 6D12)
test: Competitive displacement of P-Tyr-F from MBL antibody, fluorescence quenching
Type: binding
cond: displacement of P-Tyr-F 1.7 nM from MBL antibody 7.1 nM sites, nM sites (normality), read-out: MBL Monoclonal Kd, nM Φ
assay.metric: Kd (nM)
The reply should be a number in nM, with the unit left off.

INPUT: Form field: reported Kd of NC(Cc1ccc(OP(=O)(O)O)cc1)C(=O)O (stereo not shown)
OUTPUT: 5.4
